Molecular target: T1, recombinant HCMV pUL50 (His-tagged) (human cytomegalovirus (HCMV), UniProt P16791 1-175)
T1 construct: also called His-tagged pUL50
T1 sequence: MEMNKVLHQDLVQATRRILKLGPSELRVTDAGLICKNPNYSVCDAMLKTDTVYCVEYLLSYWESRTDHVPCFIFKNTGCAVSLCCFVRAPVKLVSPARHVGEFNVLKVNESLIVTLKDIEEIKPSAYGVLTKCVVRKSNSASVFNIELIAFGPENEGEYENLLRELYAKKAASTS
Experiment: ELISA; competition: pUL53 (1 µg/mL) coated on Immulon plates; peptide in serial dilutions from 10 µM together with His-tagged pUL50 (0.78 µg/mL) for 2.5 h; detection with anti-His-HRP; 0.1 M phosphate buffer pH 7.2, 0.1% BSA, 0.01% Tween 20
Details: both partners purified
property_label: IC50 (nM)
The reply should contain only the number, in nM.

Task: I'd like to know its IC50. The binder in question is Ac-LTLHDLHDIFREHPELELKYLNMMKMAIT-NH2 (source: synthetic peptide (Fmoc solid-phase synthesis, HPLC purified)) [Hook peptide (acetylated pUL53 hook peptide, residues 59-87)]
Result: 125
